Molecular target: anti-β1-ECII antibodies of GST/β1-ECII-immunized antibody-positive rats (sera or isolated IgG fractions) (rat)
Assay: ELISA after over-night incubation of n=6 rat sera with cyclopeptide (FIG. 27B, mean)
Bridge positions count the residues as written; N and C are the ends.
PROPERTY_MEASURED: blocking-efficiency (% of the ELISA signals of unblocked sera) (%)

BINDER | READING_UNIT | OBSERVED_VALUE
cyclo(ADEARRCYNDPKCSDFVQ) (disulfide 7-13; SMILES CC(C)[C@@H]1NC(=O)[C@H](Cc2ccccc2)NC(=O)[C@H](CC(=O)O)NC(=O)[C@H](CO)NC(=O)[C@@H]2CSSC[C@H](NC(=O)[C@H](CCCNC(=N)N)NC(=O)[C@H](CCCNC(=N)N)NC(=O)[C@H](C)NC(=O)[C@H](CCC(=O)O)NC(=O)[C@H](CC(=O)O)NC(=O)[C@H](C)NC(=O)[C@H](CCC(N)=O)NC1=O)C(=O)N[C@@H](Cc1ccc(O)cc1)C(=O)N[C@@H](CC(N)=O)C(=O)N[C@@H](CC(=O)O)C(=O)N1CCC[C@H]1C(=O)N[C@@H](CCCCN)C(=O)N2) [ECII-18AA Cys/Ser mutant (Gln-)cyclopeptide (formula VI)] | % | 60
cyclo(RAESDEARRCYNDPKCCDFVTG) (also: disulphide pairing among Cys10, Cys16, Cys17 not defined) [cyc22AA Cys/Cys, 3 cysteine-containing cyclic β1-ECII 22AA peptide with a Gly closure site] | % | 82
cyclo(ARAESDEARRCYNDPKCCDFVTNRQ) (also: three Cys (11, 17, 18), disulfide pairing not defined) [3 Cys-containing β1-ECII-25AA Cys/Cys cyclopeptide] | % | 73.4
cyclo(ADEARRCYNDPKCCDFVQ) (also: three Cys (7, 13, 14), disulfide pairing not defined) [3 Cys-containing β1-ECII-18AA Cys/Cys cyclopeptide] | % | 66.1
